# reported Growth Rate; entries follow
- Tested on: Fibroblast
- measurement_description: Incucyte cell viability with human fibroblast; note: unitless GR value; below 1 slowed growth and below 0 cell loss
- Type: toxicity, cell-based
- measurement_setup: 12 h, 10 µM, compound concentration 10 uM, replicate number 1, timepoint 12 hours
property: Growth Rate

{"compound": "CCCCNNC(=O)c1ccc(Br)cc1", "experimental_target": "Fibroblast", "endpoint_value": 0.37}
{"compound": "OCCN1CCN(CCCN2c3ccccc3Sc3ccc(Cl)cc32)CC1", "experimental_target": "Fibroblast", "endpoint_value": -0.48}
{"compound": "CCCN1CCC[C@@H]2Cc3n[nH]cc3C[C@H]21.Cl [QUINPIROLE HYDROCHLORIDE]", "experimental_target": "Fibroblast", "endpoint_value": 0.29}
{"compound": "N#Cc1c(Oc2cccc(OS(=O)(=O)CCCC(F)(F)F)c2)cccc1C(F)(F)F", "experimental_target": "Fibroblast", "endpoint_value": -0.11}
{"compound": "COc1cc2c(Oc3ccc(NC(=O)C4(C(=O)Nc5ccc(F)cc5)CC4)cc3F)ccnc2cc1OCCCN1CCOCC1", "experimental_target": "Fibroblast", "endpoint_value": -0.98}
{"compound": "COc1ccc(C(=O)N2CCN(C(=O)/C=C/c3ccc(Br)cc3)CC2)cc1", "experimental_target": "Fibroblast", "endpoint_value": 0.15}
{"compound": "Cc1cc(O)c(-c2ccc([C@@H](C)CN(C)C)cc2)c2c1[nH]c(=O)c1sccc12", "experimental_target": "Fibroblast", "endpoint_value": -0.63}
{"compound": "Cl.O=C(O)c1cc(-c2ccc(C3CCNCC3)cc2)c2ccc(-c3ccc(C(F)(F)F)cc3)cc2c1", "experimental_target": "Fibroblast", "endpoint_value": -0.12}
{"compound": "CC(C)OC(=O)N1CCC(Oc2ncnc3c2cnn3-c2ccc(S(C)(=O)=O)cc2F)CC1", "experimental_target": "Fibroblast", "endpoint_value": 0.04}

###

- System: HEK-293T
- measurement_description: Incucyte cell viability with HEK293T; note: unitless GR value; below 1 slowed growth and below 0 cell loss
- Type: toxicity, cell-based
- measurement_setup: human, 0 h, 10 µM, compound concentration 10 uM, replicate number 1, timepoint 0 hours
Lab note - cut at 0.2 for Growth Rate: 1 if strictly below, -1 if not.

{"compound": "O=C(NCCNCC(O)COc1ccc(O)cc1)N1CCOCC1.O=C(NCCNCC(O)COc1ccc(O)cc1)N1CCOCC1.O=C(O)/C=C/C(=O)O (stereo unspecified) [XAMOTEROL FUMARATE]", "class_name": -1}
{"compound": "CCCCC/C=C\\C/C=C\\C/C=C\\C/C=C\\CCCC(=O)NCC(=O)O", "class_name": -1}
{"compound": "CCc1cc2c(cc1-c1cccc(S(=O)(=O)F)c1)C(C)(C)c1[nH]c3cc(C#N)ccc3c1C2=O", "class_name": -1}
{"compound": "Cl.O=C(O)c1cc(-c2ccc(C3CCNCC3)cc2)c2ccc(-c3ccc(C(F)(F)F)cc3)cc2c1", "class_name": 1}
{"compound": "CC[C@@]1(O)C(=O)OCc2c1cc1n(c2=O)Cc2cc3ccccc3nc2-1", "class_name": 1}

###

- System: HEK-293T
- measurement_description: Incucyte cell viability with HEK293T; note: unitless GR value; below 1 slowed growth and below 0 cell loss
- Assay type: toxicity, cell-based
- measurement_setup: human, 24 h, 10 µM, compound concentration 10 uM, replicate number 1, timepoint 24 hours
Growth Rate vs 0.8: at or above is true, below is false.

{"input_smiles": "CCC(=O)NCC[C@@H]1CCc2ccc3c(c21)CCO3", "class_name": "true"}
{"input_smiles": "OCCCNc1cc(-c2ccnc(Nc3cccc(Cl)c3)n2)ccn1", "class_name": "false"}
{"input_smiles": "COc1cc(/C=C/C(=O)NCCn2c(C)cc3ccccc32)cc(OC)c1OC", "class_name": "false"}
{"input_smiles": "O=C(O)c1n[nH]c2c1C[C@H]1C[C@@H]21", "class_name": "false"}
{"input_smiles": "NC(=O)c1cc2c(-c3ccc(C(=O)NCc4ccnc(Cl)c4)s3)cccc2s1", "class_name": "false"}
{"input_smiles": "O=C1NC(=Nc2c(Cl)cccc2Cl)S/C1=C\\c1ccc2nccnc2c1", "class_name": "false"}
{"input_smiles": "O=C1[C@H](Cc2ccc(O)cc2)N2C(=O)CCN(C(=O)NCc3ccccc3)[C@H]2CN1Cc1cccc2ccccc12", "class_name": "false"}
{"input_smiles": "CCCCOCCOc1nc(-c2ccc(C(=O)O)c(F)c2)sc1C", "class_name": "true"}
